Data provenance: patent US20100081679A1

protocol.text: logP determination via retention times, calibrated with unbranched alkan-2-ones
Type: physicochemical
conditions: HPLC on reversed-phase C18, method *: 40° C., 0.1% aqueous formic acid and acetonitrile, linear gradient 10% to 95% acetonitrile
Marks after values point to notes of the source that are not given here.
Each entry below carries its reported logP.

| compound | logP |
| --- | --- |
| CCC(=O)c1ccc(Nc2ncc(Cl)c(NCC3CC3)n2)cc1 [compound 677] | 2.55* |
| CC1COC(=O)N1c1ccc(Nc2ncc(Br)c(NCC3CC3)n2)cc1 (stereo not drawn) [compound 118] | 1.72* |
| CCC(C)Sc1cccc(Nc2ncc(Cl)c(NC3CC3)n2)c1 (stereo not drawn) [compound 665] | 3.69* |
| Clc1ccc(Nc2ncc(Cl)c(NC3CC3)n2)cc1Br [compound 942] | 3.55* |
| CCc1ccc(Nc2ncc(Cl)c(NC3CC3)n2)cc1 [compound 951] | 2.13* |

Data point: CCCc1ccc(Nc2ncc(Cl)c(NC3CC3)n2)cc1 [compound 953] ; logP = 2.5*

logP reading for CSc1cccc(Nc2ncc(Cl)c(NCC3CC3)n2)c1 [compound 119] : 2.27*

Memo: CC(=O)Nc1cc(Nc2ncc(C(F)(F)F)c(NC3CC3)n2)ccc1C [compound 662] , reported logP: 1.71*;

# logP (compound: CCNC(=O)c1cccc(Nc2ncc(Br)c(NC3CC3)n2)c1 [compound 702] ) is 1.44*

logP measured on O=c1ccccn1-c1cccc(Nc2ncc(Cl)c(NC3CC3)n2)c1 [compound 726] = 1.39*

Recorded result, CN(C)S(=O)(=O)Oc1ccc(Nc2ncc(Cl)c(NC3CC3)n2)cc1 [Example 102] , logP: 2.08*

Given item COC(C)c1cccc(Nc2ncc(C(F)(F)F)c(NCC3CC3)n2)c1 (racemic) [compound 962] , the value recorded as its logP is 3.29*

---

protocol.text: logP determination via retention times, calibrated with unbranched alkan-2-ones
Assay type: physicochemical
conditions: method *: HPLC, reversed-phase C 18, 40° C., mobile phase 0.1% aqueous formic acid and acetonitrile, linear gradient from 10% to 95% acetonitrile
experimental.endpoint: logP

The reported value for Clc1cnc(Nc2ccc3ncsc3c2)nc1NC1CC1 in terms of logP is 1.66*

Per the records, this molecule ( CC(C)Oc1ccc(Nc2ncc(Cl)c(NC3CC3)n2)cc1OC(C)C ) has logP equal to 2.42*

Consider CC1(C)CC1Nc1nc(Nc2ccccc2)ncc1Cl (stereo not shown) . Its measured logP is 2.37*;

Sample FC(F)(F)c1cc(Br)cc(Nc2ncc(Cl)c(NC3CC3)n2)c1 ; logP observed: 4.6*

Summary for this molecule, CCC(CC)c1ccc(Nc2ncc(C(F)(F)F)c(NC3CC3)n2)cc1 : logP is 4.92*

---

protocol.text: logP determination via retention times, calibrated with unbranched alkan-2-ones
Format: physicochemical
conditions: method **: HPLC reversed-phase C 18, 43° C., 0.1% aqueous phosphoric acid and acetonitrile, linear gradient 10% to 95% acetonitrile
experimental.endpoint: logP

These recorded examples may help you get a feel for the data.
| molecule | logP |
| --- | --- |
| NS(=O)(=O)c1cc(Nc2ncc(Cl)c(NCC3CC3)n2)cc(C(F)(F)F)c1 [Example 18] | 2.63** |
| Cl.Clc1cnc(Nc2ccccc2)nc1NC1CC1 [Example 29] | 1.75** |
| CNS(=O)(=O)Cc1ccc(Nc2ncc(Cl)c(NC3CC3)n2)cc1 [Example 48] | 1.37** |

logP for COC(=O)c1ccc(Nc2ncc(Cl)c(NC3CC3)n2)cc1.Cl [compound 36] is 2.25**
